Cited source for all entries: PubChem BioAssay AID1996

Conditions: buffer; pH 7.4; 200.0 µM
Recorded solubility kinetic for the following compounds

>  <Compound>
CC(C)=CC(=O)Nc1cccc(S(=O)(=O)NC2=NCCCCC2)c1

>  <Observed result>
> 52.4 µg/mL

$$$$
>  <Compound>
Cc1c(Cl)cccc1NC(=S)NC1CCN(C(C)C)CC1

>  <Observed result>
> 48.9 µg/mL

$$$$
>  <Compound>
CC1CC(C)CN(C(C)C(=O)Nc2cc(S(=O)(=O)N3CCCCC3)ccc2Cl)C1 (stereo unspecified)

>  <Observed result>
< 0.3 µg/mL

$$$$
>  <Compound>
CC1CCCC(C)N1C(=O)COC(=O)CNC(=O)c1ccccc1F (stereo unspecified)

>  <Observed result>
> 52.6 µg/mL

$$$$
>  <Compound>
O=C(NC1CCS(=O)(=O)C1)c1ccccc1Cl (stereo unspecified)

>  <Observed result>
> 41.1 µg/mL

$$$$

Please look at the following compound next.
Prompt line: Recorded solubility kinetic for "C#CCOC(=O)Nc1cc(C)n(-c2ccccc2)n1" , please?
Response line: > 38.3 µg/mL

----------
Settings: buffer; pH 7.4; 200.0 µM
Measurement label: solubility kinetic

Example results:
>  <Molecule>
CC(=O)Nc1ccc2nc(NC(=O)CN3CCOCC3)sc2c1

>  <solubility kinetic>
> 50.2 µg/mL

$$$$
>  <Molecule>
O=C(O)c1cn2c3c(ccc(Cl)c3c1=O)OCC2

>  <solubility kinetic>
> 39.8 µg/mL

$$$$
>  <Molecule>
Cc1ccc(S(=O)(=O)NC2=NCN(C(C)C)CN2)cc1

>  <solubility kinetic>
> 44.5 µg/mL

$$$$
>  <Molecule>
CN(Cc1ccccc1)C(=O)COC(=O)c1ccc(Br)o1

>  <solubility kinetic>
> 52.8 µg/mL

$$$$
>  <Molecule>
COc1ccccc1C1CCN(c2ccc([N+](=O)[O-])cn2)CC1

>  <solubility kinetic>
< 0.2 µg/mL

$$$$

Please look at the following molecule next.
Prompt line: Recorded solubility kinetic for CN(C)CC1CCCCC1=O.Cl (stereo unspecified) , please?
Response line: > 28.8 µg/mL

----------
Conditions: buffer; pH 7.4; 200.0 µM
Recorded solubility kinetic for the following compounds

>  <Compound>
COc1ccc(CCNC(=O)c2ccnc(C(C)(C)C)c2)cc1OC

>  <Observed result>
> 51.4 µg/mL

$$$$
>  <Compound>
CN(C)S(=O)(=O)c1cccc(C(=O)NCCCn2ccnc2)c1

>  <Observed result>
> 50.5 µg/mL

$$$$
>  <Compound>
Cn1c(SCC(=O)Nc2nccs2)nnc1C1CC1

>  <Observed result>
> 44.3 µg/mL

$$$$
>  <Compound>
COc1ccccc1NC(=O)C(C)Sc1nccn1C (stereo not given)

>  <Observed result>
> 43.7 µg/mL

$$$$
>  <Compound>
O=C(NCc1ccccc1Br)C1CCCO1 (stereo not given)

>  <Observed result>
> 42.6 µg/mL

$$$$

Prompt line: Recorded solubility kinetic for "COc1cccc(C(=O)NCCNC(=O)c2ccccn2)c1" , please?
Response line: > 44.9 µg/mL

Prompt line: Recorded solubility kinetic for "CC(=O)N1CCN(C(=O)c2cc(=O)c3ccccc3o2)CC1" , please?
Response line: > 45 µg/mL

Prompt line: Recorded solubility kinetic for Cc1ccnc(SC2CC(=O)N(c3ccc([N+](=O)[O-])cc3)C2=O)n1 (stereo not given) , please?
Response line: > 51.7 µg/mL

Prompt line: Recorded solubility kinetic for "COc1ccc2[nH]c(C(=O)NCCCn3ccnc3)cc2c1" , please?
Response line: > 44.8 µg/mL

Prompt line: Recorded solubility kinetic for "O=C(/C=C/c1cccs1)NC(=S)Nc1ccccc1" , please?
Response line: 1.3 µg/mL

Prompt line: Recorded solubility kinetic for "CN(C(=O)CSc1nc2c(c(=O)[nH]1)CCC2)c1ccccc1" , please?
Response line: > 47.3 µg/mL

Prompt line: Recorded solubility kinetic for CCCN1CCCC(C(=O)c2cc(C)c(OC)c(C)c2)C1 (stereo not given) , please?
Response line: 39 µg/mL

Prompt line: Recorded solubility kinetic for "Cc1nc(-c2ccc3c(c2)OCCCO3)cs1" , please?
Response line: 29.1 µg/mL

Prompt line: Recorded solubility kinetic for Cc1ccc2oc(=O)cc(CN3CC(C)OC(C)C3)c2c1 (stereo not given) , please?
Response line: > 43.1 µg/mL

Prompt line: Recorded solubility kinetic for "Cc1ccc(S(=O)(=O)Nc2nc(C)c(C(=O)NN)s2)cc1" , please?
Response line: > 49 µg/mL
